# System: MYT1L
# Test Name: 3' UTR reporter interaction score (median-centred robust z-score of log2 firefly/Renilla activity); higher = less repression of the 3' UTR reporter
# Protocol Conditions: HEK293T; 48 h
Property: 3' UTR reporter interaction score
Form field (numeric): enter value without unit.

Considering "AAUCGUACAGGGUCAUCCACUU" , its 3' UTR reporter interaction score with MYT1L was recorded as -0.171

The measured 3' UTR reporter interaction score that "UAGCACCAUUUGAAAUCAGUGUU" showed for MYT1L is 0.287

The reported MYT1L 3' UTR reporter interaction score of "AGGCUGCGGAAUUCAGGAC" is 1.31

Bench note, MYT1L: "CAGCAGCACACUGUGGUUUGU" , 3' UTR reporter interaction score reads -4.01

I looked up "GAGCCAGUUGGACAGGAGC" and its 3' UTR reporter interaction score for MYT1L was 0.521

Summary line: "UCACAGUGAACCGGUCUCUUUU" , MYT1L, reported 3' UTR reporter interaction score = -2.56

Simply: "UUAAGACUUGCAGUGAUGUUUAA" , MYT1L, 3' UTR reporter interaction score = -0.158

The reported 3' UTR reporter interaction score value, MYT1L, for "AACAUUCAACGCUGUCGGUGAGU" reads -0.0848

====

# System: TP53
# Test Name: 3' UTR reporter interaction score (median-centred robust z-score of log2 firefly/Renilla activity); higher = less repression of the 3' UTR reporter
# Protocol Conditions: HEK293T; 48 h
For each record, write down the corresponding 3' UTR reporter interaction score.
Just the number.

Lookup result for "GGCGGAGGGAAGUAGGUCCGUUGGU" ; measured 3' UTR reporter interaction score: -0.152

Lab note: "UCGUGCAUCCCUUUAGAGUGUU" gave 3' UTR reporter interaction score of -0.886

Data point: "CUGCAAAGGGAAGCCCUUUCU" ; 3' UTR reporter interaction score = 0.104

Recorded result, "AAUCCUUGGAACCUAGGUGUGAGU" , 3' UTR reporter interaction score: -0.232

====

# Test system: MYC
# Test Name: 3' UTR reporter interaction score (median-centred robust z-score of log2 firefly/Renilla activity); higher = less repression of the 3' UTR reporter
# Protocol Conditions: HEK293T; 48 h
Could you please report measured 3' UTR reporter interaction score for the items listed next?
Just the number, please, no unit after it.

Value of 3' UTR reporter interaction score reported for the sequence "UACAGUAGUCUGCACAUUGGUU" is 0.385

Short answer for "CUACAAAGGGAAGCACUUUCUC" : 3' UTR reporter interaction score was 0.411

Record "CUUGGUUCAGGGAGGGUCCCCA" . Reported 3' UTR reporter interaction score: -0.0193

Record "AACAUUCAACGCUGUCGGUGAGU" , field 3' UTR reporter interaction score: 0.478

Form: sequence = "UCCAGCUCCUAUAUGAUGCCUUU" ; 3' UTR reporter interaction score = 0.624

Recorded result, "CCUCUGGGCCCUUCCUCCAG" , 3' UTR reporter interaction score: -0.307

Form field 3' UTR reporter interaction score, entry "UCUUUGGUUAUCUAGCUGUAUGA" : -0.165

3' UTR reporter interaction score measured on "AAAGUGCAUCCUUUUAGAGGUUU" = -0.372

Quick note, 3' UTR reporter interaction score for "CAACCUGGAGGACUCCAUGCUG" landed at 0.486

response.value for "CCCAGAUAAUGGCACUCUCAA" (field: 3' UTR reporter interaction score) = 0.82

Record "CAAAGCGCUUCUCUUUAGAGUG" , field 3' UTR reporter interaction score: 1.05

# 3' UTR reporter interaction score of "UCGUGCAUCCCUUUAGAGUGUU" = -0.38

3' UTR reporter interaction score measured on "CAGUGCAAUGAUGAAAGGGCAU" = 0.674

Lab book: 3' UTR reporter interaction score of "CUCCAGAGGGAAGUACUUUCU" noted as -0.333

3' UTR reporter interaction score recorded for this sequence, "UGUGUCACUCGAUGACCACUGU" , is 0.947

Please fill in: 3' UTR reporter interaction score reported for "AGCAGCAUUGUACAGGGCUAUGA" = 1.13

Lab note: measured 3' UTR reporter interaction score of "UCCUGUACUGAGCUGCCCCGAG" was -0.142

Value of 3' UTR reporter interaction score reported for the sequence "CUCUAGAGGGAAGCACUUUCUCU" is 0.549

So, "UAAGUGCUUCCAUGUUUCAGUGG" ? Its 3' UTR reporter interaction score was -0.0462

# 3' UTR reporter interaction score of "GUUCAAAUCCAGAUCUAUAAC" = -0.205

Value of measured 3' UTR reporter interaction score for the entry "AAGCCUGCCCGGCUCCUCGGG" : 0.642

Notebook: "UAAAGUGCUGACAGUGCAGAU" , 3' UTR reporter interaction score read as 0.528

The recorded 3' UTR reporter interaction score for "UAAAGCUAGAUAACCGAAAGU" is 0.416

// recorded 3' UTR reporter interaction score for "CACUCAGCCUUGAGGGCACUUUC" : -1.6

Given item "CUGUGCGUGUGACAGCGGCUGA" , the value recorded as its 3' UTR reporter interaction score is -0.0999

Form: sequence = "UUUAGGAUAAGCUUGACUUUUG" ; 3' UTR reporter interaction score = -0.602

get_value(item= "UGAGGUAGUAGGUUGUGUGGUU" , readout=3' UTR reporter interaction score) returns -4.84

Consider "CUUUCAGUCGGAUGUUUGCAGC" . Its measured 3' UTR reporter interaction score is 0.164

According to the records, this sequence "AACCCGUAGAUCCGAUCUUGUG" displays 3' UTR reporter interaction score of 1.06

Measured 3' UTR reporter interaction score of "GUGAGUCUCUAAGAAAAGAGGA" : -0.241

Sample "GCGACCCACUCUUGGUUUCCA" ; 3' UTR reporter interaction score observed: -0.5

The sequence listed as "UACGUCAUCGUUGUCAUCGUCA" has a reported 3' UTR reporter interaction score of -0.111

response.value for "UGAAACAUACACGGGAAACCUCUU" (field: 3' UTR reporter interaction score) = -4.26

// 3' UTR reporter interaction score lookup, sequence = "GAUGAGCUCAUUGUAAUAUG" , result: -0.384

Lab book: 3' UTR reporter interaction score of "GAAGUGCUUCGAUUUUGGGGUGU" noted as 0.42

3' UTR reporter interaction score reported for this sequence "UUGAAACAAUCUCUACUGAAC" : 0.402

GET /value?item= "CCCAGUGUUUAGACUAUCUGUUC" &field=3' UTR reporter interaction score returns 0.186

So for "ACUUUAACAUGGAAGUGCUUUCU" , the logged 3' UTR reporter interaction score turned out to be 0.48

Value of 3' UTR reporter interaction score reported for the sequence "AUUGACACUUCUGUGAGUAG" is -0.339

Notebook: "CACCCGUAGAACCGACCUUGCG" , 3' UTR reporter interaction score read as 0.596

Record summary for "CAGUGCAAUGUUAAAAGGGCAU" : reported 3' UTR reporter interaction score = 0.265

The value of 3' UTR reporter interaction score measured for the sequence "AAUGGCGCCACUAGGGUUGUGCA" turned out to be -0.44

response.value for "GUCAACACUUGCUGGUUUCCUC" (field: 3' UTR reporter interaction score) = 1.11

Per the record, "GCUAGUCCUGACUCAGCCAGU" has 3' UTR reporter interaction score of -0.713

Entry under test: "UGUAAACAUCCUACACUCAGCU" . Its 3' UTR reporter interaction score was -0.616

Item: "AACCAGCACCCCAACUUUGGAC" | 3' UTR reporter interaction score: 0.864

Just so you know, measured 3' UTR reporter interaction score for "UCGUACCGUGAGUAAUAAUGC" came out at -0.268

3' UTR reporter interaction score reading for "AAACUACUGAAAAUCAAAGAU" : 0.0375

The value of 3' UTR reporter interaction score measured for the sequence "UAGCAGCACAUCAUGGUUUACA" turned out to be 0.39

Briefly, 3' UTR reporter interaction score measured for "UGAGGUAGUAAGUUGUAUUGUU" : -2.7

For this sequence ( "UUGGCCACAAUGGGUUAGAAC" ), measured 3' UTR reporter interaction score is 0.316

Per the record, "UGAGGUAGUAGUUUGUACAGU" has 3' UTR reporter interaction score of -2.59

3' UTR reporter interaction score in this record for "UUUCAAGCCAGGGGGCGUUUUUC" : 0.49

Item: "GAGCCAGUUGGACAGGAGC" | 3' UTR reporter interaction score: -0.0272

Record summary for "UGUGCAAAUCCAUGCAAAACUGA" : reported 3' UTR reporter interaction score = 0.638

// field: 3' UTR reporter interaction score; key: "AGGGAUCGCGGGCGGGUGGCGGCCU" ; value = -0.321

Per the record, "UCUAGGCUGGUACUGCUGA" has 3' UTR reporter interaction score of -0.9

The recorded 3' UTR reporter interaction score for entry "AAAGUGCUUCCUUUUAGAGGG" equals 0.194

The sequence listed as "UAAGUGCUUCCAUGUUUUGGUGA" has a reported 3' UTR reporter interaction score of -0.0521

Sourced from the supplement of paper PMC5844555
